For each of the compounds below, state its inhibition at 20 µM.
system: M. tuberculosis H37Rv; assay: Resazurin reduction microtiter assay (REMA), growth inhibition and MIC determination; type: cell-based; conditions: Mycobacterium tuberculosis, 168 h, at 20 uM compound, 7 days at 37° C., read-out: H37Rv inh % at 20 uM
Entry rule: numbers only, all in %.

Problem: Need inhibition at 20 µM of Cc1noc(NS(=O)(=O)c2ccc(Nc3cc(-c4ccccc4F)ncn3)cc2)c1C , thanks.
Result: -8.5

Problem: Need inhibition at 20 µM of CCCOc1ccccc1-c1cc(Nc2ccc(S(=O)(=O)Nc3onc(C)c3C)cc2)ncn1 , thanks.
Result: -21.2

Problem: Need inhibition at 20 µM of Cc1noc(NS(=O)(=O)c2ccc(Nc3cc(-c4cc(Cl)ccc4OC(C)C)ncn3)cc2)c1C , thanks.
Result: -20.4

Problem: Need inhibition at 20 µM of COc1ccc(C)cc1-c1cc(Nc2ccc(S(=O)(=O)Nc3onc(C)c3C)cc2)ncn1 , thanks.
Result: 101

Problem: Need inhibition at 20 µM of Cc1noc(NS(=O)(=O)c2ccc(Nc3cc(-c4cccc5ccccc45)ncn3)cc2)c1C , thanks.
Result: -9.2

Problem: Need inhibition at 20 µM of COc1cccc(F)c1-c1cc(Nc2ccc(S(=O)(=O)Nc3onc(C)c3C)cc2)ncn1 , thanks.
Result: 102

Problem: Need inhibition at 20 µM of Cc1noc(NS(=O)(=O)c2ccc(Nc3cc(-c4ccc5c(c4)OCO5)ncn3)cc2)c1C , thanks.
Result: -21.5

Problem: Need inhibition at 20 µM of COc1ccc(-c2cc(Nc3ccc(S(=O)(=O)Nc4onc(C)c4C)cc3)ncn2)c(OC)c1 , thanks.
Result: 101

Problem: Need inhibition at 20 µM of Cc1noc(NS(=O)(=O)c2ccc(Nc3cc(-c4cccc(C#N)c4)ncn3)cc2)c1C , thanks.
Result: -4.3

Problem: Need inhibition at 20 µM of COc1ccc(OC)c(-c2cc(Nc3ccc(S(=O)(=O)Nc4onc(C)c4C)cc3)ncn2)c1 , thanks.
Result: 58.2

Problem: Need inhibition at 20 µM of Cc1noc(NS(=O)(=O)c2ccc(Nc3cc(-c4cccc5c4OCO5)ncn3)cc2)c1C , thanks.
Result: -7.2

Problem: Need inhibition at 20 µM of COc1ccc(COc2ccccc2-c2cc(Nc3ccc(S(=O)(=O)Nc4onc(C)c4C)cc3)ncn2)cc1 , thanks.
Result: -14.2

Problem: Need inhibition at 20 µM of Cc1noc(NS(=O)(=O)c2ccc(Nc3cc(-c4cccc(C(F)(F)F)c4)ncn3)cc2)c1C , thanks.
Result: 24.2

Problem: Need inhibition at 20 µM of COc1cc(Cl)ccc1-c1cc(Nc2ccc(S(=O)(=O)Nc3onc(C)c3C)cc2)ncn1 , thanks.
Result: 0.6

Problem: Need inhibition at 20 µM of COc1ccc(C(C)C)cc1-c1cc(Nc2ccc(S(=O)(=O)Nc3onc(C)c3C)cc2)ncn1 , thanks.
Result: 99.2

Problem: Need inhibition at 20 µM of COc1cccc(-c2cc(Nc3ccc(S(=O)(=O)Nc4onc(C)c4C)cc3)ncn2)c1 , thanks.
Result: -8.1

Problem: Need inhibition at 20 µM of CCOc1ccccc1-c1cc(Nc2ccc(S(=O)(=O)Nc3onc(C)c3C)cc2)ncn1 , thanks.
Result: -48.4

Problem: Need inhibition at 20 µM of Cc1noc(NS(=O)(=O)c2ccc(Nc3cc(-c4ccc(C(F)(F)F)cc4)ncn3)cc2)c1C , thanks.
Result: -9.8

Problem: Need inhibition at 20 µM of COc1ccc(F)cc1-c1cc(Nc2ccc(S(=O)(=O)Nc3onc(C)c3C)cc2)ncn1 , thanks.
Result: 96.4

Problem: Need inhibition at 20 µM of COc1ccccc1-c1cc(Nc2ccc(S(=O)(=O)NC(=O)C(C)C(C)=O)cc2)ncn1 (centres unmarked) , thanks.
Result: -4.8

Problem: Need inhibition at 20 µM of Cc1noc(NS(=O)(=O)c2ccc(Nc3cc(-c4ccccc4C(N)=O)ncn3)cc2)c1C , thanks.
Result: -34.2

Problem: Need inhibition at 20 µM of Cc1noc(NS(=O)(=O)c2ccc(Nc3cc(-c4ccccc4)ncn3)cc2)c1C , thanks.
Result: -22.2

Problem: Need inhibition at 20 µM of Cc1noc(NS(=O)(=O)c2ccc(Nc3cc(-c4ccccc4Oc4ccccc4)ncn3)cc2)c1C , thanks.
Result: 39
